Origin of values: PubChem BioAssay

- PROTOCOL DETAILS: E. coli acrAB mutant growth effects, primary screen, E. coli filamentation inducers, strain DRC39, OD650, 24 h (AID 1178);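 further: growth measured as culture turbidity by optical density at 650 nm; test concentration not given here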
- CONDITION LABEL: higher = more signal, called active from +8 up or from −8 down
Calls of active or inactive are those of the source.
PARAMETER: z-score

1) CCCN1C(=O)[C@@]2(c3ccc([N+](=O)[O-])cc3)CC(=O)N(C3CCCCC3)[C@@H]2c2ccc(CO)cc21    0.197 (inactive)
2) COC(=O)[C@@]1(Cc2ccc(F)cc2)[C@H]2c3cc(C(=O)N4CCCC4)n(CCSCCO)c3C[C@H]2CN1C(=O)c1ccccc1    -0.405 (inactive)
3) O=C1C2C=CC(C(O)C(c3ccccc3)c3ccccc3)N(Nc3ccccc3F)C2C(=O)N1c1ccccc1 (centres undefined)    -0.872 (inactive)
4) CCOC(=O)C[C@H]1[C@H](OC(=O)c2ccc(-c3ccccc3)cc2)[C@@H](NC(=O)c2ccc(-c3ccccc3)cc2)c2cc(OCCCO)ccc2N1C(=O)c1ccccc1    -0.168 (inactive)
5) CCN1C(=O)C2CC(=O)C3C(CN(S(=O)(=O)c4ccc(C)cc4)C3c3ccc(C)cc3)C2C1=O (centres undefined)    -0.772 (inactive)
6) C=CC[C@]12N=C(c3ccc(OCCCO)cc3)O[C@H]1c1ccccc1N(CCC)C2=O    0.181 (inactive)
7) COc1ccc([Si](C)(C)[C@H]2[C@H](CC(=O)N3CCC[C@H]3CO)O[C@@]3(C(=O)N(C)c4ccccc43)[C@@H]2C)cc1    0.133 (inactive)
8) Cc1ccc(S[C@]2(C(=O)NCc3ccccc3)CC(=O)N(Cc3ccccc3C(F)(F)F)[C@@H]2c2ccc(CO)cc2I)cc1    0.506 (inactive)
9) O=C(NCC(F)(F)F)[C@@H]1c2ccccc2C(=O)N(Cc2cc(C(F)(F)F)cc(C(F)(F)F)c2)[C@H]1c1ccc(CO)cc1    0.783 (inactive)
10) C=CCNC(=O)[C@@H]1[C@H]2C(=O)O[C@H](c3ccccc3)[C@H](c3ccccc3)N2[C@H](c2ccc(OCCO)cc2)[C@@]12C(=O)N(C(=O)OCCOC)c1ccccc12    0.446 (inactive)
11) CC(C)C[C@@H]1NC(=O)[C@@H]2C[C@H](C(=O)NCCCCCCNC(=O)CS)[C@H](c3ccc(O)cc3)N2C1=O    0.306 (inactive)
12) C[C@H]1C2[C@H](Cc3ccccc3)NC(=O)[C@]23C(=O)N[C@@H](Cc2ccccc2)C(=O)N2CCC[C@H]2C(=O)NC/C=C/CC/C=C/C3[C@@H]2O[C@]12C (some centres undefined)    0.159 (inactive)
13) C=C(C(=O)CC[C@@H](OC(=O)c1ccccc1-c1ccccc1C(=O)O)c1ccc(CO)o1)C(C)C    0.159 (inactive)
14) CCCCCN1CC=CC23O[C@@H]4/C=C\CCCOC(=O)C4[C@H]2C(=O)N(CCCCCO)[C@@H]3C1=O (some centres undefined)    0.279 (inactive)
15) CC1(C)OB(/C=C\CC(OC(=O)c2ccncc2)c2ccccc2)OC1(C)C (centres undefined)    0.0147 (inactive)
16) N#Cc1ccc(NN2C(C(O)c3ccc(B(O)O)cc3)C=CC3CN(c4ccccc4)C(=O)C32)cc1 (centres undefined)    0.898 (inactive)
17) CC(C)c1ccc(NN2C(C(O)C3=C[C@H]4C[C@@H](C3)C4(C)C)C=CC3C(=O)N(c4ccccc4)C(=O)C32)cc1 (some centres undefined)    -0.326 (inactive)
18) COC(=O)C(CC#Cc1ccc2c(c1)[C@]1(C(=O)N2)[C@H](C(=O)NC[C@H](O)c2ccccc2)[C@H]2C(=O)O[C@H](c3ccccc3)[C@H](c3ccccc3)N2[C@@H]1c1ccc(O)cc1)C(=O)OC    -0.196 (inactive)
19) COCCOC(=O)N1C(=O)[C@@]2(c3cc(C#CCC(C(=O)OC)C(=O)OC)ccc31)[C@H](C(N)=O)[C@H]1C(=O)O[C@H](c3ccccc3)[C@H](c3ccccc3)N1[C@@H]2c1ccccc1OCCO    0.664 (inactive)
20) COc1ccc([Si](C)(C)[C@H]2[C@H](CC(=O)N3CCC[C@H]3CO)O[C@@]3(C(=O)N(Cc4cccc(N5CCCCC5=O)c4)c4ccccc43)[C@@H]2C)cc1    0.957 (inactive)
21) CCOC(=O)C[C@H]1[C@H](OC(=O)c2cc3ccccc3oc2=O)[C@@H](NC(=O)c2ccc(-c3ccccc3)cc2)c2cc(OCCCO)ccc2N1C(=O)Cc1ccc(OC)cc1    -0.225 (inactive)
22) C=C(CCCC)/C(=C/C[C@@H](OC(C)=O)c1cccc(OCCO)c1)c1cc(C(=O)OC)ccc1OC    0.508 (inactive)
23) O=C1OC[C@@H](c2ccccc2)n2cc(/C=C/c3ccccc3)cc21    -0.0891 (inactive)
24) COc1c(C)cc(-c2cc3c(c(CCc4ccccc4)n2)[Si](C(C)C)(C(C)C)O[C@H]3c2ccccc2)cc1C    -0.754 (inactive)
25) CCCCCCc1nc(-c2ccc(OC)nc2)c(C)c2c1[Si](C(C)C)(C(C)C)OC2    0.746 (inactive)
26) O=C1O[C@@H](c2ccccc2)[C@@H](c2ccccc2)N2[C@@H](c3ccc(OCCO)cc3)[C@]3(C(=O)Nc4ccc(C#CC5=CCCCC5)cc43)[C@@H](C(=O)Nc3nc4ccccc4s3)[C@H]12    -0.304 (inactive)
27) CCCCC(=C=CC[C@@H](O)c1ccc(OCCO)cc1)CCO    1.34 (inactive)
28) CCCCC=C[C@@H](NC(=O)C(C)(C)C)c1ccccc1    -0.275 (inactive)
29) O=C(CS)NCCCCCCNC(=O)[C@H]1C[C@H]2C(=O)NCC(=O)N2[C@H]1c1cccc(OCCO)c1    0.469 (inactive)
